Source listed as patent US8716285B2.

# p21 RP3 values compiled below
# System: p21 promoter-luciferase construct
# assayNotes: p21 reporter gene induction in HeLa cells transfected with p21 promoter-luciferase construct
# Format: cell-based
# conditionDescription: relative gene level of p21 induced compared to MS275 at 3 μM
Respond numerically, and do not add a unit to the figure.

molecule="O=C(NO)c1ccc2c(c1)CC(Nc1ccc(Br)cc1)CC2 (stereo not shown)" assayedtarget="p21 promoter-luciferase construct" recordedresult=0.26
molecule="Cc1ccc(-c2ccnc(NC3CCc4ccc(C(=O)NO)cc4C3)n2)cn1 (stereo not shown)" assayedtarget="p21 promoter-luciferase construct" recordedresult=0.30
molecule="O=C(NO)c1ccc2c(c1)CC(Nc1nccc(-c3ccc(Cl)nc3)n1)CC2 (stereo not shown)" assayedtarget="p21 promoter-luciferase construct" recordedresult=0.39

Now examine the next entry.
*Q* Please indicate recorded p21 RP3 of O=C(NO)c1ccc2c(c1)CC(Nc1ccc([N+](=O)[O-])cc1)CC2 (stereo not shown) measured with p21 promoter-luciferase construct.
*A* 0.08

====

# assayedTarget: recombinant human HDAC8 (Homo sapiens (Human))
# Sequence (Q9BY41 whole entry): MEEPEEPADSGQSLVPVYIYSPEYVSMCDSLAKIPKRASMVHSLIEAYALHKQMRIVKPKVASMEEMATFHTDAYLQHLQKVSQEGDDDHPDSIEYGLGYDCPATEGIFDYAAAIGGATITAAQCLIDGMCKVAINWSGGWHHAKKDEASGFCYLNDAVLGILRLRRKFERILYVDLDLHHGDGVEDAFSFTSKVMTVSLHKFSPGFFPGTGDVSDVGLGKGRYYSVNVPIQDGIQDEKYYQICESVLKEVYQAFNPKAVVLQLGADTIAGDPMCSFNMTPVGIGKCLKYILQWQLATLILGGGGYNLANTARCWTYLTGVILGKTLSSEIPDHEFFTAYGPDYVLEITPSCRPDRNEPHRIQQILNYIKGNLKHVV
# assayNotes: HDAC8 inhibition: recombinant HDAC8 fluorometric assay
# conditionDescription: recombinant human HDAC8, substrate Ac-Arg-His-Lys-Lys(ε-acetyl)-AMC
# Experimental: A competitive inhibitory assay of HDAC8 was carried out by using recombinant HDAC8 and a commercial substrate Ac-Arg-His-Lys-Lys(ε-acetyl)-AMC. Compounds were tested for their ability to inhibit histone deacetylase 8 using an in vitro deacetylation assay. […] The fluorescence signal was measured by a FlexStation3 plate reader (excitation wave length 340-360 nm; emission wave length 440-465 nm). The IC50 was calculated after normalization and curve fitting using XLfit4.0 software. […]
# pIC50 values compiled below
Scale explanation: pIC50 corresponds to minus log10 of a concentration expressed in moles per litre.

compound="O=C(NO)c1ccc2c(c1)CC(NS(=O)(=O)c1cccc(Cl)c1)CN2 (centres unmarked)" recordedresult=6.01

Now examine the next entry.
*Q* Return the recorded pIC50 value; entry: O=C(/C=C/c1cccnc1)NC1CCc2ccc(C(=O)NO)cc2C1 (centres unmarked)
*A* 6.00

====

# assayedTarget: recombinant human HDAC8 (Homo sapiens (Human))
# assayNotes: HDAC8 inhibition: recombinant HDAC8 fluorometric assay
# conditionDescription: recombinant human HDAC8, substrate Ac-Arg-His-Lys-Lys(ε-acetyl)-AMC
# IC50 values compiled below
Numbers only; they are read as µM.

Worked examples, 2 compounds total:
compound="O=C(NO)c1cc2c(cc1F)CCC(Nc1nccc(-c3cccnc3)n1)C2 (stereo not drawn)" recordedresult=1.51
compound="Cc1cncc(-c2ccnc(NC3CCc4ccc(C(=O)NO)cc4C3)n2)c1 (stereo not drawn)" recordedresult=0.52

*Q* Return the recorded IC50 value; entry: O=C(NO)c1ccc2c(c1)CC(Nc1ccccn1)CC2 (stereo not drawn)
*A* 2.9

*Q* Return the recorded IC50 value; entry: O=C(NC1CCc2ccc(C(=O)NO)cc2C1)OCc1cccnc1 (stereo not drawn)
*A* 1.27

*Q* Return the recorded IC50 value; entry: O=C(NO)c1ccc2c(c1)CC(Nc1nccc(-c3cccnc3Cl)n1)CC2 (stereo not drawn)
*A* 0.51

*Q* Return the recorded IC50 value; entry: O=C(NO)c1ccc2c(c1)CC(Nc1ncc3cc(F)ccc3n1)CC2 (stereo not drawn)
*A* 1.78
